From: PubChem BioAssay AID624491

# Test system: D54 ERlucT glycosylation luciferase reporter, luminescence, 24 h
# TEST NAME: N-linked glycosylation inhibitors, luciferase reporter, dose response, D54 ERlucT cells, luminescence, cherry-picks (AID 624491);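 note: signal gain reflects blocked N-linked glycosylation of a luciferase reporter; actives raise luciferase signal so AC26 marks activators of the reporter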
Activity calls are given as the source filed them.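 Rule for the calls: active = fitted curve crossing a set activation limit at or below the highest valid dose tested; inconclusive = flat fit at 30 to 70% activation, or poor fit; inactive = the rest, including signal decreases.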
MEASURED QUANTITY: AC26

1. Cc1noc2ncnc(Sc3ccccc3Cl)c12 ... 12500 nM
2. COc1ccc(NC(=O)c2nc(C)c(C3(C)CC(c4ccccc4)=NO3)s2)cc1 (stereo not given) ... 4020 nM
3. C=CCNc1nc2cc(-c3ccccc3C)sc2c(=O)n1C ... 2810 nM
4. NNC(=O)c1nc(-c2ccccc2)cc(-c2ccccc2)n1 ... 2320 nM
5. COc1cc(Nc2c3c(nc4ccccc24)CCCC3)cc(OC)c1OC ... 581 nM
6. COC(=O)C(=Cc1ccc(-c2ccsc2C(=O)OC)o1)C(=O)OC ... 9800 nM
7. COc1cc(/C=C/C(=O)OCC(=O)NCc2ccc(F)cc2)ccc1O ... 1590 nM
8. Cc1c(-c2nc(N)nc(Nc3ccccc3)n2)oc2ccccc12 ... 3890 nM
9. Cc1ccccc1NC(=O)Cn1nnc(C(=O)NCc2ccco2)c1N ... 1770 nM
10. CCN(CCCNC(=O)CCCOc1cc(=O)n(C)c2ccccc12)Cc1ccccc1 ... 3420 nM
11. Cn1c(-c2ccccc2)c(/C=N/NC(=O)c2ccc(O)cc2)c2ccccc21 ... 647 nM
12. Cc1cc(N2CCCCC2)nc(NCc2ccccc2)n1 ... > 19500 nM (inactive)
13. O=C(NCCc1ccccc1)C1c2ccccc2C(=O)N1Cc1cccs1 (stereo not given) ... 2690 nM
14. COc1ccc(C2C3=C(COC3=O)Oc3cc4c(cc32)OCO4)cc1OC (stereo not given) ... 1780 nM
15. COc1cc2c3c(cccc3c1)C(=O)N(CCN1CCCC1)C2=O ... 200 nM

###

# Tested on: D54 ERlucT glycosylation luciferase reporter, luminescence, 24 h
# TEST NAME: N-linked glycosylation inhibitors, luciferase reporter, dose response, D54 ERlucT cells, luminescence, cherry-picks (AID 624491);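 note: signal gain reflects blocked N-linked glycosylation of a luciferase reporter; actives raise luciferase signal so AC26 marks activators of the reporter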
The entries below come with measured AC26 values attached.
MEASURED QUANTITY: AC26

1. CCNc1nc(NC(C)(C)C)nc(SC(C(C)=O)C(C)=O)n1 ... 208 nM
2. N#Cc1c(-c2ccc(F)cc2)c(-c2ccc(F)cc2)nn(CCO)c1=O ... 2080 nM
3. CCc1nc2ccc(C(=O)NCCc3c[nH]c4ccccc34)cn2c1N(C=O)CCC(C)C ... 343 nM
4. O=C(c1ccccc1-c1ccccc1)N1CCN(c2ccccn2)CC1 ... 2340 nM
5. Cc1cccc(C)c1OCCNC(=O)C(=O)NCc1ccco1 ... 1710 nM
6. Cc1ccc(NC(=O)c2ccc(Cl)cc2[N+](=O)[O-])nc1 ... 1080 nM
7. O=C(CSc1c2c(nc3ccc(Cl)cc13)CCCC2)N1CCN(C(=O)c2ccco2)CC1 ... 7690 nM
8. Cc1cc2nnc(SCC(=O)NCc3cccs3)n2c2ccccc12 ... 1660 nM
9. CN(C)S(=O)(=O)c1ccc(N2CCCC2)c(C(=O)Nc2nc(-c3ccc(F)cc3)cs2)c1 ... 1550 nM
10. CCOc1ccc2[nH]c3c(N4CCc5ccccc5C4)ncnc3c2c1 ... 3460 nM
11. O=C(N/N=C\C=C\c1ccc([N+](=O)[O-])o1)c1cccs1 ... 7850 nM

###

The following molecules are shown together with reported AC26 values.
# Tested on: D54 ERlucT glycosylation luciferase reporter, luminescence, 24 h
# TEST NAME: N-linked glycosylation inhibitors, luciferase reporter, dose response, D54 ERlucT cells, luminescence, cherry-picks (AID 624491);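 note: signal gain reflects blocked N-linked glycosylation of a luciferase reporter; actives raise luciferase signal so AC26 marks activators of the reporter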
MEASURED QUANTITY: AC26

1. COC1C(O)C(C)OC(OC2C(Oc3cccc4c(O)c5c(=O)oc6ccc(C)c7c(=O)oc(c34)c5c67)OC(C)C(O)C2O)C1O (stereo unspecified) ... 1 µM
2. Cc1ccc(NC(=O)c2cc(S(=O)(=O)N(C)C)ccc2N2CCCC2)cc1F ... 0.109 µM
3. COc1cc2c(cc1OC)C(C)N(C(=O)Nc1cc(C)cc(C)c1)CC2 (stereo unspecified) ... 6.97 µM
4. COc1ccc(-n2c(C)cc(C(=O)CCl)c2C)cc1 ... 3.98 µM
5. COc1ccc(-c2cc3ccccc3oc2=O)cc1NC(=S)NC(=O)c1ccc2c(c1)OCCO2 ... 3.97 µM
6. CC12CC[C@H]3[C@@H](CCC4(O)C[C@H](O)CCC34/C=N/NC(=O)c3ccccc3[N+](=O)[O-])C1(O)CCC2C1=CC(=O)OC1 (stereo partly specified) ... 4.28 µM
7. COc1ccc(Nc2nc(N(C)c3ccccc3)nc(N)c2[N+](=O)[O-])cc1 ... 0.271 µM
8. C[C@@]12C(=O)Nc3cc(Cl)ccc3C(=O)N1[C@H]1c3cc(Cl)ccc3OC[C@@H]1[C@@H]2c1ccccc1 ... 4.04 µM
9. CC(CCc1ccco1)NC(=O)CCc1nnc2ccc(NCc3ccc(Cl)cc3)nn12 (stereo unspecified) ... 1.26 µM
10. Cc1noc2ncnc(Sc3ccc(Br)cc3)c12 ... 4.47 µM
11. C=CCn1c(O)c(/C=C2/C=CC=N2)c(=O)[nH]c1=O ... 3.08 µM
12. Cc1ccc(N=Nc2c(N)nn(-c3ccccc3)c2N)cc1 ... 0.602 µM
13. COc1nc(=O)n(C2C=CC(=O)O2)cc1F (stereo unspecified) ... 3.2 µM
14. COc1ccc(NC(=O)CSc2c3c(nc4ccccc24)CCCC3)c(OC)c1 ... 9.24 µM
15. Cc1ccccc1OCCc1c(C)[nH]c(=S)[nH]c1=O ... 1.7 µM
16. CN(C)C(CNC(=O)CSc1nc2sc3c(c2c(=O)n1C)CCCC3)c1ccccc1 (stereo unspecified) ... 0.387 µM
17. C[C@@]12C(=O)Nc3ccc(Br)cc3C(=O)N1[C@H]1c3ccccc3OC[C@@H]1[C@@H]2c1ccccc1 ... 0.368 µM
18. Cc1cccc(C(=O)Oc2ccccc2/C=N/NC(=O)c2ccc(NC(=O)C(C)(C)C)cc2)c1 ... 1.55 µM
19. COc1ccc(OC)c(S(=O)(=O)Nc2ccc3c(c2)n(C)c(=O)n3C)c1 ... 3.32 µM
20. CN(C)CCCNc1cc(-c2ccccc2)nc2cc(-c3cccc(F)c3)nn12 ... 5.21 µM
21. COC(=O)[C@@H]1C[C@H]1[C@@H](NP(=O)(c1ccccc1)c1ccccc1)c1ccccc1 ... 3.65 µM
22. COc1ccc(/C=C2\CC/C(=C\c3ccc(OC)c(OC)c3)C2=O)cc1OC ... 3.79 µM
23. Cc1cc(C)c2nc3nc(C)cc(C)c3c(N)c2c1 ... 0.145 µM
24. Cn1nc(-c2ccc(Cl)cc2)c2cc(C(=O)NC3CC3)sc21 ... 6.32 µM
25. CCOC(=O)c1ccccc1Nc1cn(C(C)=O)c2ccccc12 ... 1.79 µM
26. COc1ccc(-c2cc(C(=O)NCC(c3ccccc3)N(C)C)c3ccccc3n2)cc1OC (stereo unspecified) ... 1.32 µM
